# system under test: T1, human B7-1 K139D on cells (Homo sapiens, UniProt P33681 35-280)
# T1 construct: mCherry-tagged point mutant; also called LYS139ASP; LYS139 ASP
# T1 chain: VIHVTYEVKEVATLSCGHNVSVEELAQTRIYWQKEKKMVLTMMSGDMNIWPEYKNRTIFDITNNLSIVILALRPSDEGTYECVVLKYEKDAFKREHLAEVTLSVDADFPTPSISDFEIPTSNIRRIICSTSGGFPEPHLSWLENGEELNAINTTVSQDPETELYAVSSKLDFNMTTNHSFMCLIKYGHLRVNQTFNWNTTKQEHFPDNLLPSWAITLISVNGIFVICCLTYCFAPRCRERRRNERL
# assay remarks: cell-cell binding, flow cytometry; percent of the wild-type pair
assay metric: percent binding (%)

| binder | unit | number |
| --- | --- | --- |
| human p75NTR L165K on cells (receptor, Fluorescent-tagged point mutant; also called LEU165K*) KEACPTGLYTHSGECCKACNLGEGVAQPCGANQTVCEPCLDSVTFSDVVSATEPCKPCTECVGLQSMSAPCVEADDAVCRCAYGYYQDETTGRCEACRVCEAGSGLVFSCQDKQNTVCEECPDGTYSDEANHVDPCKPCTVCEDTERQLRECTRWADAECEEIPGRWITRSTPPEGSDSTAPSTQEPEAPPEQDLIASTVAGVVTTVMGSSQPVVTRGTTDNLIPVYCSILAAVVVGLVAYIAFKRWNSCKQNKQGANSRPVNQTPPPEGEKLHSDSGISVDSQSLHDQQPHTQTASGQALKGDGGLYSSLPPAKREEVEKLLNGSAGDTWRHLAGELGYQPEHIDSFTHEACPVRALLASWATQDSATLDALLAALRRIQRADLVESLCSESTATSPV | % | 19 |

Reference source: patent US20240201167A1
